Test system: NmCSS and PmAldolase
Assay type: biochemical, Neisseria meningitidis; Pasteurella multocida
Marks after values point to notes of the source that are not given here.
MEASURED_ATTRIBUTE: Percentage conversion (%) CMP-Sialic acid

1. CC(=O)N[C@@H]1C(O)O[C@H](CN=[N+]=[N-])[C@@H](O)[C@@H]1O (some centres unmarked) [ManNAc6N3, 6-azido-6-deoxy-N-acetylmannosamine] | 91 ± 10 ^b %
2. [N-]=[N+]=N[C@H](C=O)[C@@H](O)[C@H](O)[C@H](O)CO [Man2N3, 2-azido-2-deoxy-mannose] | 77 ± 1 ^b %
3. CC(=O)N[C@@H]1C(O)O[C@H](CO)[C@@H](N=[N+]=[N-])[C@@H]1O (some centres unmarked) [ManNAc4N3, 4-azido-4-deoxy-N-acetylmannosamine] | 90 ± 3 ^b %

As a next step, examine the compound that follows.
Kindly note the recorded Percentage conversion (%) CMP-Sialic acid for CC(=O)NC[C@@H](O)[C@@H](O)[C@H](O)[C@@H](C=O)NC(C)=O [ManNAc6NAc, 6-N-acetyl-6-deoxy-N-acetylmannosamine] , which is 87 ± 2 ^b %

###

Target: NmCSS (Neisseria meningitidis, UniProt P0A0Z8)
Sequence (P0A0Z8 whole entry): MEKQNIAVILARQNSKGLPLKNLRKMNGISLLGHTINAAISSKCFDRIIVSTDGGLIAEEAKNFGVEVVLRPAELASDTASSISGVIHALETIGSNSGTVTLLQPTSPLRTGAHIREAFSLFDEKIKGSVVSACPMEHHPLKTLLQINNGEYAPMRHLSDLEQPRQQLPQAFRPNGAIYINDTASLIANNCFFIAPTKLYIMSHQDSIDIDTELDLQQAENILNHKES
Type: biochemical
Conditions: step 1 in the presence of NmCSS (0.75 mg/mL) for 10 h
Marks after values point to notes of the source that are not given here.
MEASURED_ATTRIBUTE: Percentage conversion (%) CMP-Sialic acid

Completed entries (count: 5):
1. O=C(CO)N[C@H]1[C@H]([C@H](O)[C@H](O)CO)OC(O)(C(=O)O)C[C@@H]1O (stereo partly drawn) | 90 ± 2 ^a %
2. CO[C@H](CO)[C@@H](O)[C@@H]1OC(O)(C(=O)O)C[C@H](O)[C@H]1NC(C)=O (stereo partly drawn) | 79 ± 1 ^a %
3. CC(=O)N[C@H]1[C@H]([C@H](O)[C@H](O)CO)OC(O)(C(=O)O)C[C@@H]1OC(C)=O (stereo partly drawn) | 53 ± 1 ^a %
4. O=C(O)C(=O)C[C@H](O)[C@@H](O)[C@@H](O)[C@H](O)[C@H](O)CO | Quantitative ^a
5. CC(=O)N[C@H]1[C@H]([C@H](O)[C@H](O)COC(C)=O)OC(O)(C(=O)O)C[C@@H]1O (stereo partly drawn) | 61 ± 2 ^a %

Known value: NmCSS (Neisseria meningitidis, UniProt P0A0Z8) Percentage conversion (%) CMP-Sialic acid of the compound CC(=O)N[C@H]1[C@H]([C@H](O)[C@H](O)CO)OC(O)(C(=O)O)C[C@@H]1O (stereo partly drawn) equals Quantitative ^a

###

# maps each entry to its Percentage conversion (%)
Tested on: α1-4-galactosyltransferase activity of NmSiaDW
Experiment: Donor substrate specificity for the α1-4-galactosyltransferase activity of NmSiaDW using different sugar nucleotides (acceptor S3)
Type: biochemical, Neisseria meningitidis
Conditions: 11 μg/mL NmSiaDW, 10 min; acceptor S3 1 mM, donor 2 mM, 30° C.
Express your answer in %, writing the number without its unit.

Completed entries (count: 2):
1. O=C(O)[C@H]1O[C@H](OP(=O)(O)OP(=O)(O)OC[C@H]2O[C@@H](n3ccc(=O)[nH]c3=O)[C@H](O)[C@@H]2O)[C@H](O)[C@@H](O)[C@H]1O | 0
2. C[C@@H]1O[C@H](OP(=O)(O)OP(=O)(O)OC[C@H]2O[C@@H](n3cnc4c(=O)[nH]c(N)nc43)[C@H](O)[C@@H]2O)[C@@H](O)[C@H](O)[C@@H]1O | 0

Known value: α1-4-galactosyltransferase activity of NmSiaDW Percentage conversion (%) of the molecule CC(=O)N[C@H]1[C@@H](OP(=O)(O)OP(=O)(O)OC[C@H]2O[C@@H](n3ccc(=O)[nH]c3=O)[C@H](O)[C@@H]2O)O[C@H](CO)[C@@H](O)[C@@H]1O equals 0

###

Test system: α1-4-galactosyltransferase activity of NmSiaDW
Assay: Donor substrate specificity for the α1-4-galactosyltransferase activity of NmSiaDW using different sugar nucleotides (acceptor S3)
Assay type: biochemical, Neisseria meningitidis
Settings: 0.66 mg/mL NmSiaDW, 10 h; acceptor S3 1 mM, donor 2 mM, 30° C.
MEASURED_ATTRIBUTE: Percentage conversion (%)

Completed entries (count: 5):
1) CC(=O)N[C@H]1[C@@H](OP(=O)(O)OP(=O)(O)OC[C@H]2O[C@@H](n3ccc(=O)[nH]c3=O)[C@H](O)[C@@H]2O)O[C@H](CO)[C@@H](O)[C@@H]1O | 0%
2) O=C(O)[C@H]1O[C@H](OP(=O)(O)OP(=O)(O)OC[C@H]2O[C@@H](n3ccc(=O)[nH]c3=O)[C@H](O)[C@@H]2O)[C@H](O)[C@@H](O)[C@H]1O | <1%
3) C[C@@H]1O[C@H](OP(=O)(O)OP(=O)(O)OC[C@H]2O[C@@H](n3cnc4c(=O)[nH]c(N)nc43)[C@H](O)[C@@H]2O)[C@@H](O)[C@H](O)[C@@H]1O | 0%
4) O=C(O)[C@H]1O[C@H](OP(=O)(O)OP(=O)(O)OC[C@H]2O[C@@H](n3ccc(=O)[nH]c3=O)[C@H](O)[C@@H]2O)[C@H](O)[C@@H](O)[C@@H]1O | 0%
5) CC(=O)N[C@H]1[C@H]([C@H](O)[C@H](O)CO)O[C@](OP(=O)(O)OC[C@H]2O[C@@H](n3ccc(N)nc3=O)[C@H](O)[C@@H]2O)(C(=O)O)C[C@@H]1O [CMP-Neu5Ac, cytidine-5′-monophosphate Neu5Ac] | 0%

Kindly note the recorded Percentage conversion (%) for CC(=O)N[C@@H]1[C@@H](OP(=O)(O)OP(=O)(O)OC[C@H]2O[C@@H](n3ccc(=O)[nH]c3=O)[C@H](O)[C@@H]2O)O[C@H](CO)[C@@H](O)[C@@H]1O , which is 0%

Kindly note the recorded Percentage conversion (%) for CC(=O)N[C@H]1[C@@H](OP(=O)(O)OP(=O)(O)OC[C@H]2O[C@@H](n3ccc(=O)[nH]c3=O)[C@H](O)[C@@H]2O)O[C@H](CO)[C@H](O)[C@@H]1O , which is 1.9 ± 0.2%
